# SYSTEM_TESTED: PD brain-derived alpha-synuclein aggregates (Homo sapiens)
# Construct: from tissue; host or cells: human PD donor brain, sarkosyl-insoluble pellet
# ASSAY_METHOD_TEXT: Micro-radiobinding competition assay
# Type: binding
# CONDITION_DESCRIPTION: 1 μM example compound; competition over [3H]-alpha-syn reference ligand (20 nM or 30 nM); human PD brain-derived a-syn aggregates
Counter-ions that a name gives are not always drawn.
PROPERTY_LABEL: Competition at 1 μM (%)

Before answering, review these 2 worked examples.
1. O=C1N(c2cccnc2)Cc2nc(-c3ccc(N4CC[C@@H](F)C4)nc3)cn21 [Example 2, Hydrochloride]	86
2. O=C1N(c2cccnc2)Cc2cc(-c3ccc(N4CC[C@@H](F)C4)nc3)cn21 [Example 1, Hydrochloride]	95

I: O=C1N(c2cccnc2)Cc2nc(-c3ccc(N4CC[C@H](F)C4)nc3)cn21 [Example 3, Hydrochloride]
II: O=C1N(c2cccnc2)Cc2cc(-c3ccc(F)nc3)cn21
Which item exceeds the other in Competition at 1 μM (%), I or II ? Please identify the chosen entry by its label.
I
(I: 85%, II: 52%)

###

# SYSTEM_TESTED: PD brain-derived alpha-synuclein aggregates (Homo sapiens)
# Construct: from tissue; host or cells: human PD donor brain, sarkosyl-insoluble pellet
# ASSAY_METHOD_TEXT: Micro-radiobinding competition assay
# Assay type: binding
# CONDITION_DESCRIPTION: 100 nM example compound; competition over [3H]-alpha-syn reference ligand (20 nM or 30 nM); human PD brain-derived a-syn aggregates
PROPERTY_LABEL: Competition at 100 nM (%)

P: Cn1cc(N2Cc3cc(-c4ccc(N5CC[C@@H](F)C5)nc4)cn3C2=O)cn1
Q: O=C1N(c2cccnc2)Cc2cc(-c3ccc(F)nc3)cn21
Could you tell me which of these two has the smaller Competition at 100 nM (%) figure? First: P Second: Q Identify your selection by its label.
Q

###

# SYSTEM_TESTED: PD brain-derived alpha-synuclein aggregates (Homo sapiens)
# Construct: from tissue; host or cells: human PD donor brain, sarkosyl-insoluble pellet
# ASSAY_METHOD_TEXT: Micro-radiobinding competition assay
# Assay type: binding
# CONDITION_DESCRIPTION: 1 μM example compound; competition over [3H]-alpha-syn reference ligand (20 nM or 30 nM); human PD brain-derived a-syn aggregates
PROPERTY_LABEL: Competition at 1 μM (%)

1) Cn1cc(N2Cc3cc(-c4ccc(N5CC[C@@H](F)C5)nc4)cn3C2=O)cn1	100
2) Cn1cc(N2Cc3cc(-c4ccc(N5CC[C@H](F)C5)nc4)cn3C2=O)cn1	102
3) O=C1N(c2cccnc2)Cc2cc(-c3ccc(N4CC[C@H](F)C4)nc3)cn21	85

###

# SYSTEM_TESTED: PD brain-derived alpha-synuclein aggregates (Homo sapiens, UniProt P37840)
# Construct: from tissue; host or cells: human PD donor brain, sarkosyl-insoluble pellet
# ASSAY_METHOD_TEXT: Micro-radiobinding competition assay
# Format: binding
# CONDITION_DESCRIPTION: 100 nM example compound; competition over [3H]-alpha-syn reference ligand (20 nM or 30 nM); human PD brain-derived a-syn aggregates
Where a name gives a salt, the structure may show the parent alone.
PROPERTY_LABEL: Competition at 100 nM (%)

1) O=C1N(c2cccnc2)Cc2nc(-c3ccc(N4CC[C@H](F)C4)nc3)cn21 [Example 3, Hydrochloride]	59
2) O=C1N(c2cccnc2)Cc2nc(-c3ccc(N4CC[C@@H](F)C4)nc3)cn21 [Example 2, Hydrochloride]	63
3) O=C1N(c2cccnc2)Cc2cc(-c3ccc(N4CC[C@H](F)C4)nc3)cn21	69
4) Cn1cc(N2Cc3cc(-c4ccc(N5CC[C@H](F)C5)nc4)cn3C2=O)cn1	87
5) O=C1N(c2cccnc2)Cc2cc(-c3ccc(N4CC[C@@H](F)C4)nc3)cn21 [Example 1, Hydrochloride]	75
